Target protein (sequence): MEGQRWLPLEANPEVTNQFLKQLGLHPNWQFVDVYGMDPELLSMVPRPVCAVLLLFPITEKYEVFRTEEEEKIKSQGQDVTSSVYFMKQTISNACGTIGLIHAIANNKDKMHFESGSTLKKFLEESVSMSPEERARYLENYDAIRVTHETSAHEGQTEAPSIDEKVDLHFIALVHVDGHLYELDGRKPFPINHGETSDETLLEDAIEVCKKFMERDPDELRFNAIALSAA
pIC50: −log10 of the molar value.
# Lookup of reported pIC50 keyed by entry

O=C(Nc1cccc(CN2CCCC2)c1)c1ccc2c(Cl)c3c(nc2c1)CCCC3    < 3.70

// moving on: another record for pIC50
Give the measured pIC50 of O=C(NCc1cccc(CN2CCCC2)c1)c1ccc2c(Cl)c3c(nc2c1)CCCC3 .
< 3.70
